system: COG-LL-402h; experiment: selective drug sensitivity score (sDSS, relative to normal bone marrow) (sDSS (score)); higher = more potent and effective on the cell line relative to normal bone marrow cells; conditions: 72 h;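 also: ALL cell lines in 384-well plates, five doses spanning 10,000-fold, each plate scaled between vehicle and 100 µmol/L benzalkonium chloride controls, sDSS an adapted area-under-curve metric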
Parameter class (string): assigned from measured selective drug sensitivity score. Ranges: low value = under -0.1, medium value = from -0.1 up to 2, high value = 2 and over

See these solved cases before continuing.
Band assignment needed for COc1ccc(COc2cc3oc(=O)c4cc(C(C)O)ccc4c3cc2OC)cc1 (configuration not stated) [Palomid-529] (top concentration 10000 nM) please.
medium value

Input Cc1sc2c(c1C)C(c1ccc(Cl)cc1)=N[C@@H](CC(=O)NCCCCNC(=O)COc1cccc3c1C(=O)N(C1CCC(=O)NC1=O)C3=O)c1nnc(C)n1-2 (some centres not stated) [dBET1] (top concentration 10000 nM)
high value

Input Cn1cc(-c2ccc(F)c(C(F)(F)F)c2)nc1C1CCN(c2ncnc3[nH]ncc23)CC1 (top concentration 10000 nM)
low value

---
Band assignment needed for CCCCCCCCCCCCCCCCOP(=O)([O-])OCC[N+](C)(C)C [Miltefosine] (top concentration 100000 nM) please.
medium value

Input COCC[n+]1c2c(n(Cc3cnccn3)c1C)C(=O)c1ccccc1C2=O [Sepantronium_bromide] (top concentration 10000 nM)
high value

Input C=CC(=O)Nc1cccc(Nc2nc(Nc3ccc(N4CCN(C(C)=O)CC4)cc3OC)ncc2C(F)(F)F)c1 [Rociletinib] (top concentration 10000 nM)
high value

Input COc1cc2ncnc(Nc3ccc(F)c(Cl)c3)c2cc1OCCCN1CCOCC1 [Gefitinib] (top concentration 10000 nM)
medium value

Input CC(C)(C)c1nc(-c2cccc(NS(=O)(=O)c3c(F)cccc3F)c2F)c(-c2ccnc(N)n2)s1 [Dabrafenib] (top concentration 2500 nM)
medium value

Input C[C@]1(O)C[C@@H](c2nc(-c3ccc4ccc(-c5ccccc5)nc4c3)c3c(N)nccn32)C1 [Linsitinib] (top concentration 10000 nM)
low value

Input CC(C)Nc1cc(-c2c[nH]c(C(=O)N[C@H](CO)c3cccc(Cl)c3)c2)c(Cl)cn1 [Ulixertinib] (top concentration 10000 nM)
low value

Input NC(=O)N1CCC(CC(=O)N2CCC([C@H]3c4ncc(Br)cc4CCc4cc(Cl)cc(Br)c43)CC2)CC1 [Lonafarnib] (top concentration 100000 nM)
high value

Input CCS(=O)(=O)N1CCN(c2ccc(Nc3ncc(C(N)=O)c(NC4CC4)n3)cc2)CC1 [Cerdulatinib] (top concentration 10000 nM)
low value

###

Overview of recorded selective drug sensitivity score for various molecules
tested on: CCRF-CEM; assay: selective drug sensitivity score (sDSS, relative to normal bone marrow) (sDSS (score)); higher = more potent and effective on the cell line relative to normal bone marrow cells; conditions: 72 h
# respond with the number and nothing more

Solved entries (count: 3):
Query (molecule): CO[C@H]1C[C@@H]2CC[C@@H](C)[C@@](O)(O2)C(=O)C(=O)N2CCCC[C@H]2C(=O)O[C@H]([C@H](C)C[C@@H]2CC[C@@H](OCCO)[C@H](OC)C2)CC(=O)[C@H](C)/C=C(\C)[C@@H](O)[C@@H](OC)C(=O)[C@H](C)C[C@H](C)/C=C/C=C/C=C/1C [Everolimus] (top concentration 100 nM) ; field requested: selective drug sensitivity score
5.9

Input Cn1ncc(Cl)c1-c1cc(C(=O)N[C@H](CN)Cc2ccc(F)c(F)c2)oc1Cl [Uprosertib] (top concentration 10000 nM)
10.4

Input O=C(NCc1ccncc1)C12CC3CC(C1)CC(c1ccc(Cl)cc1)(C3)C2 (top concentration 50000 nM)
2.28

---
Query (molecule): Nc1ncnc2c1nc(N)n2[C@@H]1O[C@H](CO)[C@@H](O)[C@H]1O [8-amino-adenosine] (top concentration 50000 nM) ; field requested: selective drug sensitivity score
6.48

Input C[C@H](Nc1ncnc2nc[nH]c12)c1cc2cccc(Cl)c2c(=O)n1-c1ccccc1 [Duvelisib] (top concentration 500 nM)
4.36

Input CC(=O)c1c(C)c2cnc(Nc3ccc(N4CCNCC4)cn3)nc2n(C2CCCC2)c1=O [Palbociclib] (top concentration 10000 nM)
4.38

Input CC(C)(C)c1nc(-c2cccc(NS(=O)(=O)c3c(F)cccc3F)c2F)c(-c2ccnc(N)n2)s1 [Dabrafenib] (top concentration 2500 nM)
0.58

Input CNC(=O)[C@@H](NC(=O)[C@H](CC(C)C)[C@H](O)C(=O)NO)C(C)(C)C [Marimastat] (top concentration 10000 nM)
-0.48

Input CC[C@@H]1[C@H](F)C(=O)N[C@@H]1COc1nccc2cc(C(N)=O)c(OC)cc12 (top concentration 10000 nM)
1.58

Input O=C(Nc1nc2cccc(-c3ccc(CN4CCS(=O)(=O)CC4)cc3)n2n1)C1CC1 [Filgotinib] (top concentration 10000 nM)
-1.34

Input CCN1CCN(c2ccc(Nc3cc(N(C)C(=O)Nc4c(Cl)c(OC)cc(OC)c4Cl)ncn3)cc2)CC1 [Infigratinib] (top concentration 1000 nM)
0
